Cited source: ChEMBL document CHEMBL1124963

tested on: Escherichia coli; assay: Antibacterial activity (10 e-6 log (1/MIC) towards Escherichia coli; type: functional
Listed here are molecules together with their documented Log 1/MIC.
Give a plain numeric answer without units written out.

Given the entry Nc1nc(N)c2ccccc2n1 , report its measured Log 1/MIC.
0.7

Reported Log 1/MIC for COc1cccc2nc(N)nc(N)c12 : what is it?
2.1

Returns the measured Log 1/MIC for the input molecule. Input: Cc1cccc2nc(N)nc(N)c12
1.7

Please look up its Log 1/MIC: COC(=O)c1cccc2nc(N)nc(N)c12
-0.1

----------
tested on: Escherichia coli; experiment: Antibacterial activity (10 e-6 log (1/MIC) towards Escherichia coli; assay type: functional
parameter: Log 1/MIC

Nc1nc(N)c2c(O)cccc2n1	<-0.7
Nc1nc(N)c2c([N+](=O)[O-])cccc2n1	<0.5

Now consider the entry below.
// lookup Log 1/MIC | system=Escherichia coli | key= CCCNC(=O)c1cccc2nc(N)nc(N)c12
<-0.6
